- experimental target: T1, GIP receptor (UniProt P48546 22-466, limits assumed)
- T1 sequence (looked up): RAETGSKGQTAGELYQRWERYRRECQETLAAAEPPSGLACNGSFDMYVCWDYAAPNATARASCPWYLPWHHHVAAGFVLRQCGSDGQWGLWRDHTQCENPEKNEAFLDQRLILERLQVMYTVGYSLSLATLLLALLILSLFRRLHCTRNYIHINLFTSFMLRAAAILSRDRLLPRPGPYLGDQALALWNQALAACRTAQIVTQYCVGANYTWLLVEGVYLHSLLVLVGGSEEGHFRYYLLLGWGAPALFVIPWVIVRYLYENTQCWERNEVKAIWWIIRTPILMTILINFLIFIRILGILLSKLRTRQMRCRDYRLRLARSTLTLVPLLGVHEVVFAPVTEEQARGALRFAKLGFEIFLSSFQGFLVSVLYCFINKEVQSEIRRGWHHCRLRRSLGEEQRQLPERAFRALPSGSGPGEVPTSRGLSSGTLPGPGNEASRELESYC
- protocol: cell-based or functional assay
Numbered stars: 1 amine (or outer) side, 2 acyl side, 3 side chain; on linkers, the order of the positions; unused ones are H or OH. Square brackets hold non-standard residues; d marks the D form. Side chains are listed from the residue outwards. Ends that are not written are not given here. * marks the point of attachment. 4‑HPA = 4-hydroxyphenylacetic acid, O=C(Cc1ccc(O[*:3])cc1)[*:2]; C16 acyl = C16 fatty acyl group bound via a gamma-Glu spacer; γGlu = O=C(O)[C@H](CCC(=O)[*:2])N[*:1]; Desaminotyrosyl = O=C(CCc1ccc(O)cc1)*; Palmitoyl = CCCCCCCCCCCCCCCC(=O)*
Mark 1 (yes) only when EC50 at GIP Receptor (cAMP luciferase reporter, HEK293) stays strictly below 0.01 nM. Values equal to the cut-off are 0 (no).

-- ask Hi there! Is EC50 at GIP Receptor (cAMP luciferase reporter, HEK293) for [Desaminotyrosyl]AQGTFTSDYSKYLDERAAQDFVQWLLEGGPSSGAPPPSK(Palmitoyl)G-NH2 [peptide of SEQ ID NO: 157] below 0.01 nM, do you know?
-- reply 0 (no)

-- ask Now this one: Ac-[dH]AEGTFTSDK([γGlu-Palmitoyl])SKYLDERAAQDFVQWLLEAGPSSGAPPPS-NH2 [peptide of SEQ ID NO: 154]
-- reply 0 (no)

-- ask Now this one: Ac-[dH]AQGTFTSDK([γGlu-Palmitoyl])SKYLDERAAQDFVQWLLEAGPSSGAPPPS-NH2 [peptide of SEQ ID NO: 151]
-- reply 0 (no)

-- ask Now this one: Ac-[dY]ALGTFTSDK([γGlu-Palmitoyl])SKYLDERAAQDFVQWLLEGGPSSGAPPPS-NH2 [peptide of SEQ ID NO: 142]
-- reply 1 (yes)

-- ask Now this one: Ac-YA[dQ]GTFTSDK([γGlu-Palmitoyl])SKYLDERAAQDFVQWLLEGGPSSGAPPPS-NH2 [peptide of SEQ ID NO: 158]
-- reply 0 (no)

-- ask Now this one: Ac-[dF]AQGTFTSDK([γGlu-Palmitoyl])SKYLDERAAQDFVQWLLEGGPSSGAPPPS-NH2 [peptide of SEQ ID NO: 150]
-- reply 0 (no)

-- ask Now this one: Ac-[dY]AQGTFTSDYSKYLDERAAQDFVQWLLEAGPSSGAPPPSK([γGlu-γGlu-Palmitoyl])G-NH2 [peptide of SEQ ID NO: 159]
-- reply 0 (no)

-- ask Now this one: [4‑HPA]AQGTFTSDK([γGlu-C16 acyl])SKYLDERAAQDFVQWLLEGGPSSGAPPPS-NH2 [peptide of SEQ ID NO: 156]
-- reply 0 (no)

-- ask Now this one: XAEGTFTSDKSKYLDERAAQDFVQWLLEGGPSSGAPPPS (position 1 Des-NH2-Tyr (desamino L-Tyr); position 2 Ala; C-terminal amide; other non-coded or acylated residues as in the sequence listing) [peptide of SEQ ID NO: 145]
-- reply 1 (yes)

-- ask Now this one: Ac-[dY]AQGTFTSDYSKYLDERAAQDFVQWLLEGGPSSGAPPPSK([γGlu-γGlu-Palmitoyl])G-NH2 [peptide of SEQ ID NO: 149]
-- reply 1 (yes)

-- ask Now this one: [Desaminotyrosyl]AQGTFTSDYSKYLDERAAQDFVQWLLEGGPSSGAPPPSK([γGlu-γGlu-Palmitoyl])G-NH2 [peptide of SEQ ID NO: 160]
-- reply 0 (no)

-- ask Now this one: Ac-YAQGTFTSDK([γGlu-Palmitoyl])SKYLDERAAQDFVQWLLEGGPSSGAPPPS-NH2 [peptide of SEQ ID NO: 155]
-- reply 0 (no)
